system: UO-31; assay: NCI tumour cell line growth inhibition, 48 h
The source made the active and inactive calls. Cut-off read from the data, not from the text of the source: active = GI50 up to about 1.1 µM and inactive = higher.
QUANTITY KIND: GI50

Data request: For the molecule shown here, "O=C(O)C(Cl)(c1ccccc1)c1ccccc1" , give the reported GI50.
Data returned: > 100 µM (inactive)

Data request: For the molecule shown here, "N#Cc1ccc(OC(=O)c2ccc(NC(=N)N)cc2)cc1.c1ccncc1" , give the reported GI50.
Data returned: > 100 µM (inactive)

Data request: For the molecule shown here, "CCOC(=O)c1c(Nc2ccccc2)sc2cccnc12" , give the reported GI50.
Data returned: 1.94 µM (inactive)

Data request: For the molecule shown here, CCN(CC)C1Oc2cc3c(cc2C(c2cccc(OC)c2O)C1C)OCO3 (stereo not drawn) , give the reported GI50.
Data returned: 9.38 µM (inactive)

Data request: For the molecule shown here, "COCN1C(=O)[C@@H]2CCCN2C(=O)c2cc(OC)c(Cc3ccccc3)cc21" , give the reported GI50.
Data returned: 57 µM (inactive)

Data request: For the molecule shown here, "O=c1[nH]c(Nc2ccc(Br)c(C(F)(F)F)c2)nc2[nH]cnc12" , give the reported GI50.
Data returned: 43.9 µM (inactive)

Data request: For the molecule shown here, CC(C)OCC(O)COc1ccc2ccc(=O)oc2c1 (stereo not drawn) , give the reported GI50.
Data returned: > 100 µM (inactive)

Data request: For the molecule shown here, "O=C1CNc2cc(N3CCOCC3)ccc2N1" , give the reported GI50.
Data returned: > 100 µM (inactive)

---

tested on: M14; assay: NCI tumour cell line growth inhibition, 48 h
Calls of active or inactive are those of the source. Rule as the data show it: active = GI50 up to about 1.1 µM and inactive = higher.
QUANTITY KIND: GI50

Data request: For the compound shown here, "CN(C)/C=N/c1ccc2c3c(cccc13)-c1ccccc1-2" , give the reported GI50.
Data returned: 10.2 µM (inactive)

Data request: For the compound shown here, "COn1cc(CO)c2ccccc21" , give the reported GI50.
Data returned: > 86.9 µM (inactive)

Data request: For the compound shown here, "Cc1cc2nc(CC(C(F)(F)F)C(F)(F)F)oc2cc1C" , give the reported GI50.
Data returned: 1.07 µM (active)

Data request: For the compound shown here, COc1ccc2nc3cc(Cl)ccc3c(NCCC(=O)OCC(O)C(O)C(O[C@H](C)C(=O)NC(C)C(=O)NC(CCC(N)=O)C(=O)OCc3ccccc3)C(C=O)NC(C)=O)c2c1 (some centres not stated) , give the reported GI50.
Data returned: 19.5 µM (inactive)

Data request: For the compound shown here, "Cn1c(N)c(/C=C/C(=O)Oc2ccccc2)c(=O)n(C)c1=O" , give the reported GI50.
Data returned: > 100 µM (inactive)

Data request: For the compound shown here, O=C(CNc1ccc(Cl)cc1Cl)NC1C=Cc2ccc(S(=O)(=O)Nc3ccc(Cl)cc3Cl)cc2C1=O (configuration not stated) , give the reported GI50.
Data returned: > 100 µM (inactive)

Data request: For the compound shown here, CCN(CC)C1Oc2cc3c(cc2C(c2cc(OC)c(O)c(OC)c2)C1C)OCO3 (configuration not stated) , give the reported GI50.
Data returned: 4.69 µM (inactive)

---

system: BT-549; test: NCI tumour cell line growth inhibition, 48 h
Calls of active or inactive are those of the source. Cut-off read from the data, not from the text of the source: active = GI50 up to about 1.1 µM and inactive = higher.
QUANTITY KIND: GI50

Data request: // map "CN(C)c1ccc(/C=C/c2ccc3ccccc3[n+]2C)cc1" to recorded GI50 (system: BT-549)
Data returned: 1.2 µM (inactive)

Data request: // map "CC(=O)Nc1ccc(Nc2nc(=O)[nH]c(=O)[nH]2)cc1" to recorded GI50 (system: BT-549)
Data returned: > 100 µM (inactive)

Data request: // map "CCSCCCC(=O)O" to recorded GI50 (system: BT-549)
Data returned: > 100 µM (inactive)
